Assay: Mass balance: excretion of radioactivity, copanlisib and metabolites in urine and feces
Assay type: in vivo, human
Details: feces; HPLC with off-line radioactivity detection; 6 subjects
parameter-measured: Amount excreted in feces as this component, arithmetic mean (range)

{"smiles-repr": "COc1c(OCCCN2CCOCC2)ccc2c1N=C(NC(=O)c1cnc(N)nc1)N1CCN=C21", "test-value": "30.1 (16.8–37.9) % of dose"}
{"smiles-repr": "COc1c(O)ccc2c1N=C(NC(=O)c1cnc(N)nc1)N1CCN=C21", "test-value": "5.61 (1.74–9.53) % of dose"}
{"smiles-repr": "COc1c(OCCCNCCO)ccc2c1N=C(NC(=O)c1cnc(N)nc1)N1CCN=C21", "test-value": "7.32 (5.61–11.6) % of dose"}
{"smiles-repr": "COc1c(OCCC(=O)O)ccc2c1N=C(NC(=O)c1cnc(N)nc1)N1CCN=C21", "test-value": "11.8 (9.91–13.0) % of dose"}
{"smiles-repr": "COc1c(OCCCN2CCOCC2=O)ccc2c1N=C(NC(=O)c1cnc(N)nc1)N1CCN=C21", "test-value": "6.39 (4.34–8.66) % of dose"}
